The reported measurements were obtained from PubChem BioAssay (NCI).

- Test system: OVCAR-5 ovarian
- assay: NCI-60 one-dose screen, 48 h (100 = growth as untreated, 0 = no growth, -100 = all killed)
- details: 10 µM unless noted
About 83,000 compounds went through this panel and 20% of them were active in at least one assay; those are over-represented in the sample as a whole.
Please go through the items and note down their growth.
Give bare numbers, in %.

As a guide, the following entries are already answered.
{"compound": "Cc1ccc(-c2nnc(COc3ccc(-c4nnc(N)s4)cc3)o2)cc1", "system under test": "OVCAR-5 ovarian", "growth [%]": 113}
{"compound": "COc1ccc(C2SC(C)C(=O)N2CCc2cccs2)cc1OC (stereo not given)", "system under test": "OVCAR-5 ovarian", "growth [%]": 104}
{"compound": "CCOC(=O)c1sc(NC(=O)CN2CCC(Cc3ccccc3)CC2)nc1C", "system under test": "OVCAR-5 ovarian", "growth [%]": 103}
{"compound": "Cc1cccc2c(=O)c3c(sc12)c(NCCNCCO)nc1ccccc13", "system under test": "OVCAR-5 ovarian", "growth [%]": 64.9}

Can you give me growth for all of these, one by one?
1. COc1ccc(NS(=O)(=O)c2ccc(-c3cnc(C4CC4)o3)cc2)cc1
2. Clc1cccc(Cl)c1Nc1ccc2nnc(-c3ccncc3)n2n1
3. c1ccc2cc(-c3n(Cc4ccc5ccccc5n4)c4ccccc4[n+]3Cc3ccc4ccccc4n3)ccc2c1
4. COc1ncnc2c1ncn2C/C(Br)=C(\Br)CCl
5. CN1CCN(c2ccc3nc(-c4ccc5nc(-c6ccc(C(F)(F)F)cc6)[nH]c5c4)[nH]c3c2)CC1

Result:
78.6
102
8.83
62.1
110

Can you give me growth for all of these, one by one?
1. COc1nc2c(cc1S(=O)(=O)c1ccccc1)CCc1c-2cnn1-c1cccc(Cl)c1
2. COc1cc(-c2ccc3cc(OC)c(OC)c(OC)c3c2)cc(OC)c1OC
3. COc1ccc(/C=N/NC(=O)c2cnn3c2NC(c2ccccc2)C3)cc1OC1CCCC1 (stereo not given)
4. O=C1/C(=C/c2ccc(F)cc2)CN(Cc2cn(CCNc3ccnc4cc(Cl)ccc34)nn2)C/C1=C\c1ccc(F)cc1
5. Cc1cc(C)c(S(=O)O)c(C)c1

Result:
1: 80.1; 2: 82; 3: 101; 4: -57.6; 5: 114

Can you give me growth for all of these, one by one?
1. CCC12CCC3c4ccc(O)cc4CCC3C1CC(O)C2O (stereo not given)
2. COc1cc(-c2nc(SC(C)C)nc(Nc3cccc(C)c3)c2C#N)cc(OC)c1OC
3. O=c1nc(NO)[nH]c(=O)n1Cc1ccc(F)cc1
4. CN1CCN(CCCn2c3c(sc4ncccc43)c(=O)n3nnc(-c4ccccc4)c23)CC1
5. Nc1c(Br)cc(Br)cc1-c1n[nH]c(=O)[nH]c1=O
6. Cl.Fc1c[c-]c(-c2ccccn2)c(F)c1.[Pt].c1ccc([PH+](CC[PH+](c2ccccc2)c2ccccc2)c2ccccc2)cc1
7. Nc1nc(N)c(C=Nc2ccc(Br)cc2)c(Nc2ccc(Br)cc2)n1

Result:
1: 103; 2: 107; 3: 104; 4: 119; 5: 97.2; 6: -93.4; 7: 79.3

###

- Tested on: SN12C renal
- assay: NCI-60 one-dose screen, 48 h
- details: 10 µM unless noted
This is part of a sample that, as a whole, favours compounds with a hit. Of some 83,000 tested, about 20% had one in any assay. Activity calls are given as the source filed them. Rule for the calls: active = growth percent below 10; inactive = the rest.
Give one outcome, nothing more. List: Y (active), N (inactive)

Here are 5 molecules together with their reported answers.
{"molecule": "CCCOC(=O)c1ccc2c(c1)[N+](=O)C(C(=O)c1ccccc1)=C(C(F)(F)F)[N+]2=O", "class label": "Y"}
{"molecule": "CCN(CC)c1ccc2c(c1)OS(=O)(=O)N=C2", "class label": "N"}
{"molecule": "O=c1onc(-c2ccccc2)c2ccccc12", "class label": "N"}
{"molecule": "COc1cc(/C=C2\\C(=O)N(c3c(Cl)cccc3Cl)c3ccccc32)cc(OC)c1O", "class label": "N"}
{"molecule": "Cc1ccc(S(=O)(=O)c2ccc3[nH]c(=O)[nH]c(=O)c3c2)cc1", "class label": "N"}

Q: What is the recorded call for this molecule in the test? COc1ccc(Nc2[nH]n(C3=Nc4ccccc4Sc4ccccc43)c(=O)c2C#N)cc1
Result: N

Q: What is the recorded call for this molecule in the test? O=C(Nc1ccc(Cl)c(Cl)c1)NC(CO)(CO)CO
Result: N

Q: What is the recorded call for this molecule in the test? N#Cc1c(O)c2c(c(O)c1C#N)C(=O)c1ccccc1C2=O
Result: Y

###

- Test system: ACHN renal
- assay: NCI-60 one-dose screen, 48 h (100 = growth as untreated, 0 = no growth, -100 = all killed)
- details: 10 µM unless noted
Compounds without any hit were thinned out: in the full panel of roughly 83,000, 20% have a hit. The source made the active and inactive calls. The calls were made as follows: active = growth percent below 10; inactive = the rest.
endpoint: growth

Can you give me growth for all of these, one by one?
1. CC(C)NCC(O)COc1ccc(CCOCC2CC2)cc1 (stereo unspecified)
2. Nc1nc2c(s1)CCc1c-2c(Br)n(Cc2ccccc2)c1Br
3. CC1SC(c2ccc(Cl)cc2)N(CCc2cccs2)C1=O (stereo unspecified)
4. COc1ccc(CSc2nc3cc(OC)c(OC)cc3c(=O)n2-c2ccc(Cl)cc2)cc1
5. O=C(N/N=C(\CS(=O)(=O)c1ccccc1)c1cc2cc(Br)ccc2oc1=O)c1ccccc1

Result:
1: 109% (inactive); 2: 19.4% (inactive); 3: -6.58% (active); 4: 97.1% (inactive); 5: 103% (inactive)

###

- System: T-47D breast
- assay: NCI-60 one-dose screen, 48 h (100 = growth as untreated, 0 = no growth, -100 = all killed)
- details: 10 µM
About 83,000 compounds went through this panel and 20% of them were active in at least one assay; those are over-represented in the sample as a whole.
endpoint: growth (%)
Give bare numbers, in %.

{"compound": "c1ccc2c(c1)oc1cc3c(cc12)nnc1cccn13", "measurement unit": "%", "growth": 85.4}
{"compound": "O=C1C(N2CCOCC2)=Cc2cccc3cccc1c23", "measurement unit": "%", "growth": 86.6}
{"compound": "CC[Si](CC)(CC)OC1[C@@H](O[Si](CC)(CC)CC)[C@@H](CNC(=O)NC)O[C@H]1n1cnc2c(NC(=O)Nc3ccccc3)ncnc21 (some centres undefined)", "measurement unit": "%", "growth": 89.8}
{"compound": "COc1ccc(-c2nn(-c3ccc(NC(=O)c4ccc(Cl)c(Cl)c4)cc3)cc2-c2ccncc2)cc1Cl", "measurement unit": "%", "growth": 64.9}
{"compound": "NC(=O)c1cccc(-n2ccc3cc(NC(=O)Nc4ccc(Cl)c(Cl)c4)ccc32)n1", "measurement unit": "%", "growth": 49.3}
{"compound": "CC(C)N1CCN(c2ccc(OC[C@H]3CO[C@](Cn4cncn4)(c4ccc(Cl)cc4Cl)O3)cc2)CC1", "measurement unit": "%", "growth": 105}

Can you give me growth for all of these, one by one?
1. COc1ccc(C2SC(C)C(=O)N2CCc2cccs2)cc1OC (centres undefined)
2. Cl.Fc1c[c-]c(-c2ccccn2)c(F)c1.[Pt].c1ccc([PH+](CC[PH+](c2ccccc2)c2ccccc2)c2ccccc2)cc1
3. CCN(CC)CCCNc1ccc(C)c2sc3ccccc3c(=O)c12

Result:
[52.9, -65.2, 43.7]

###

- Test system: RXF 393 renal
- assay: NCI-60 one-dose screen, 48 h (100 = growth as untreated, 0 = no growth, -100 = all killed)
- details: 10 µM unless noted
Compounds without any hit were thinned out: in the full panel of roughly 83,000, 20% have a hit. Calls of active or inactive are those of the source. How the source made its calls: active means growth percent below 10; inactive means the rest.
endpoint: growth

As a guide, the following entries are already answered.
{"compound": "COc1cc(-c2nc(SC(C)C)nc(Nc3ccccc3C)c2C#N)cc(OC)c1OC", "growth": "120% (inactive)"}
{"compound": "CCCCC(O)Cn1ncc(C(=O)OCC)c1NC(=O)NCc1ccccc1C(F)(F)F (stereo not given)", "growth": "106% (inactive)"}
{"compound": "O=C(O)C[C@H](O)C[C@H](O)/C=C/c1c(C2CC2)nc2ccccc2c1-c1ccc(F)cc1", "growth": "63.5% (inactive)"}
{"compound": "O=C1C=CC(=O)N1CCCCCCCCCCN1C(=O)C=CC1=O", "growth": "76.6% (inactive)"}
{"compound": "CN1CCN(C(=O)OCCOCCOC(=O)N2CCN(C)CC2)CC1", "growth": "87.8% (inactive)"}

Can you give me growth for all of these, one by one?
1. CON=C1C[C@]2(C[C@@H]3C[C@@H](C/C=C(\C)C[C@@H](C)/C=C/C=C4\CO[C@@H]5[C@H](O)C(C)=C[C@@H](C(=O)O3)[C@]45O)O2)O[C@H](/C(C)=C/C(C)C)[C@H]1C
2. O=C(c1ccccc1)C(Br)C(Br)c1cccc([N+](=O)[O-])c1 (stereo not given)
3. Cc1nc2nc(C(F)(F)F)[nH]c2nc1C
4. COc1ccc(Cn2c(Br)c3c(c2-c2cc(OC)c(OC)c(OC)c2)CCc2sc(N)nc2-3)cc1
5. Cl.Fc1c[c-]c(-c2ccccn2)c(F)c1.[Pt].c1ccc([PH+](CC[PH+](c2ccccc2)c2ccccc2)c2ccccc2)cc1

Result:
1. 47.2% (inactive)
2. -78.8% (active)
3. 106% (inactive)
4. -0.407% (active)
5. -84.4% (active)
